test system: KG-1; experiment: Antiproliferative activity against human KG-1 cells incubated for 96 hrs by MTT assay; type: functional, cell-based; conditions: KG-1, 96 h
A collection of molecules and their measured pIC50
Reminder that pIC50 is minus the log10 of a molar concentration.

structure smiles string	result number
C/C(O)=C(\C#N)C(=O)Nc1cc(O[C@@H](C)C(F)(F)F)c(C(=O)c2ccccc2Cl)cc1F	6.37

Please find the next molecule below.
Q) Please give the measured pIC50 for this molecule: "C/C(O)=C(\C#N)C(=O)Nc1cc(O[C@@H](C)C(F)(F)F)c(C(=O)c2ccccc2F)cc1F"
A) 6.28

====

biological target: Dihydroorotate dehydrogenase (quinone), mitochondrial (Homo sapiens, UniProt Q02127); experiment: Inhibition of human DHODH at 100 nM for 30 mins relative to control
Sequence (Q02127 whole entry): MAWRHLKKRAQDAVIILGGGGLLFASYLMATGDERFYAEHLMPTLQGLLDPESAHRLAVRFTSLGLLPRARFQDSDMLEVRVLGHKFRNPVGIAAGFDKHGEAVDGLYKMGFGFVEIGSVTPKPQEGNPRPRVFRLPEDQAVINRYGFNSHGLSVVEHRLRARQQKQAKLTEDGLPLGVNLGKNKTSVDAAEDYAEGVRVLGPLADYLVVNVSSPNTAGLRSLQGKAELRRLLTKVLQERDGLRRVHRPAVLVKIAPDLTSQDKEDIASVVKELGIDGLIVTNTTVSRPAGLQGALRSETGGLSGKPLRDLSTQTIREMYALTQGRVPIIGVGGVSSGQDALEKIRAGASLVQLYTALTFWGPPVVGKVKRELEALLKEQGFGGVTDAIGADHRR
value kind: inhibition (%)
Kindly provide the numeric value in % only, without the unit symbol.

Example compounds with recorded inhibition:
compound	inhibition, %
C/C(O)=C(\C#N)C(=O)Nc1cc(O[C@@H](C)C(F)(F)F)c(C(=O)c2ccc3ccccc3c2)cc1F	53.4
COc1ccc(C(=O)c2cc(F)c(NC(=O)/C(C#N)=C(/C)O)cc2O[C@@H](C)C(F)(F)F)cc1	52.1
O=C(c1ccccc1)c1ccc(Nc2ncccc2C(=O)O)cc1	38.3
C/C(O)=C(\C#N)C(=O)Nc1cc(O[C@@H](C)C(F)(F)F)c(C(=O)c2ccccc2Cl)cc1F	84.2
O=C(c1ccccc1)c1ccc(Nc2ncccc2C(=O)O)c(Cl)c1	62.4
CCC(C)Oc1cc(NC(=O)/C(C#N)=C(/C)O)c(F)cc1C(=O)c1ccccc1 (centres undefined)	65.4
C/C(O)=C(\C#N)C(=O)Nc1ccc(C(=O)c2ccccc2)cc1F	32.1
O=C(c1ccccc1)c1cc(F)c(Nc2ncccc2C(=O)O)c(F)c1	67.2

Now for a further compound.
Q) Request: inhibition, test system Dihydroorotate dehydrogenase (quinone), mitochondrial (Homo sapiens, UniProt Q02127), entry "C/C(O)=C(\C#N)C(=O)Nc1cc(O[C@@H](C)C(F)(F)F)c(C(=O)c2ccccc2)cc1F"
A) 71.5
